SYSTEM: T1, biotinylated CD32bECDHis (human, UniProt P31994 43-223, limits assumed, biotinylated (sites not given))
T1 sequence (looked up): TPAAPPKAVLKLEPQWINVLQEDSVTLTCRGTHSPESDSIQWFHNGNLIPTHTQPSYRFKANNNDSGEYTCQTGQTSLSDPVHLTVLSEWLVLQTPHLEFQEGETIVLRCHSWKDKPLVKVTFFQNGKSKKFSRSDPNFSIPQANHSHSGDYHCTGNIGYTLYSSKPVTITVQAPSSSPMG
MEASUREMENT_DESCRIPTION: competition ELISA, competitor 038

{"BINDER": "Antibody 038 (antibody, human IgG1, V domains shown, Human antibody; also called HuMab 038) VH: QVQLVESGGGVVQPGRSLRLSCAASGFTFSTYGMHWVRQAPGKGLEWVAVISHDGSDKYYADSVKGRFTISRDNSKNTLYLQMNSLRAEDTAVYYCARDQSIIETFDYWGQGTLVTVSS VL: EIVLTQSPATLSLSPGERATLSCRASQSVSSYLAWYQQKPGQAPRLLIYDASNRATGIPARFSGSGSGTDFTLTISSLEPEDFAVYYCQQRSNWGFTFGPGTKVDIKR", "% residual binding": "17%"}
{"BINDER": "Antibody 022 (antibody, V domains shown, also called HuMab 022) VH: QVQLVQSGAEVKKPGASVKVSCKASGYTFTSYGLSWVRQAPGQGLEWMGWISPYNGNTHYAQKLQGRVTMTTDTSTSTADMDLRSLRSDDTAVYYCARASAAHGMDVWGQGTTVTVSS VL: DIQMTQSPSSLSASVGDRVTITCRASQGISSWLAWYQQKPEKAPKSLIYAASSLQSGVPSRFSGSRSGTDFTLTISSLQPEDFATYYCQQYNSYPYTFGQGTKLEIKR", "% residual binding": "115%"}
{"BINDER": "Antibody 063 (antibody, human IgG1, V domains shown, Human antibody; also called HuMab 063) VH: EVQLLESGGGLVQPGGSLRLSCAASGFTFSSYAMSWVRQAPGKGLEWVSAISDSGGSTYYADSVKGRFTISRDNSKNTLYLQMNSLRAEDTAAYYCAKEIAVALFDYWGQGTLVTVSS VL: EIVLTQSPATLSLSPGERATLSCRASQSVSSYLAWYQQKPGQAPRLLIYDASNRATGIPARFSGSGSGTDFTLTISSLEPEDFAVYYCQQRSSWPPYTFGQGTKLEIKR", "% residual binding": "102%"}
